system: YT (IL-2 2.5 ng/mL); assay: percent inhibition of viability; higher = more inhibition; details: 72 h; 10 nM;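 also: normalised to DMSO-only wells as negative and benzethonium chloride as positive control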
Endpoint: percent inhibition of viability (%)
Answer format: numeric, % implied, no suffix.

Observe how each entry below is paired with its result.
Cc1ccc(-n2nc(C(C)(C)C)cc2NC(=O)Nc2ccc(OCCN3CCOCC3)c3ccccc23)cc1 [Doramapimod] (max concentration tested 10000 nM)
9.26
CC/C(=C(\c1ccc(O)cc1)c1ccc(OCCN(C)C)cc1)c1ccccc1 [4-hydroxytamoxifen] (max concentration tested 10000 nM)
-0.32
C=C(c1ccc(C(=O)O)cc1)c1cc2c(cc1C)C(C)(C)CCC2(C)C [Bexarotene] (max concentration tested 10000 nM)
-2.56
Nc1ccccc1NC(=O)c1ccc(CNc2nccc(-c3cccnc3)n2)cc1 [Mocetinostat] (max concentration tested 10000 nM)
-2.92
O=C(O)CC[C@H]1CC[C@@](c2cc(F)ccc2F)(S(=O)(=O)c2ccc(Cl)cc2)CC1 [MK-0752] (max concentration tested 1000 nM)
-6.38

Field: next molecule
Exam item: Which percent inhibition of viability value belongs to Nc1nc(OCc2cc(Br)cs2)c2[nH]cnc2n1 [Lomeguatrib] (max concentration tested 10000 nM) ?
Marked response: -6.22
